All figures here come from ChEMBL document CHEMBL1201862.

Reported GI50 values follow for various molecules
# Test system: DMS-114
# method notes: NCI tumour cell line growth inhibition, 48 h
Activity calls are given as the source filed them. Rule as the data show it: active = GI50 up to about 1.1 µM and inactive = higher.

Problem: Which GI50 reading was recorded for the molecule "CC1(C)CC(N(C(=O)/C=C/c2ccc([N+](=O)[O-])o2)C2CCCCC2)CC(C)(C)N1" ?
Solution: 2.55 µM (inactive)

Problem: May I ask what GI50 has been recorded for CCN(CC)CCCCC1CCN(CC(=O)N2CC(C)C(=O)Nc3ccccc32)CC1 (stereo not given) ?
Solution: > 100 µM (inactive)

Problem: Using the record for COc1ccc2cc1Oc1ccc(cc1)CC1c3cc(c(OC)cc3CCN1C)Oc1c3c(cc4c1C(C2)N(C)CC4)OCO3 (stereo not given) , report its GI50.
Solution: 5.74 µM (inactive)

Problem: Please give the measured GI50 for this molecule: "CC(C)C(=O)Nc1nc2[nH]cnc2c(=O)[nH]1"
Solution: > 100 µM (inactive)

Problem: Item "CCc1cccc(C)c1NC(=O)NS(=O)(=O)c1ccc(C)cc1" has what recorded GI50?
Solution: > 100 µM (inactive)

Problem: Recorded GI50 of "CCCCSN1C(=O)c2ccccc2C1=S" , please.
Solution: 45.5 µM (inactive)

Problem: Which GI50 is reported for this molecule? "O=C(Nc1ccc(Nc2ccc(NC(=O)c3ccccc3)c3c2C(=O)c2ccccc2C3=O)c2c1C(=O)c1ccccc1C2=O)c1ccccc1"
Solution: > 100 µM (inactive)

Problem: Can you share its GI50? I mean this molecule: "COc1ccc(S(=O)(=O)N/N=C\c2cc([N+](=O)[O-])cc(I)c2O)c(OC)c1OC"
Solution: 25.1 µM (inactive)

Problem: Consider the molecule shown here: "COC(=O)c1cc2c(nc1C)-c1ccccc1OS2(=O)=O" What is its recorded GI50?
Solution: > 100 µM (inactive)

Problem: Given the entry "O=C1c2ccc3c4ccccc4n(-c4ccccc4)c3c2C(=O)N1c1ccc(Cl)cc1" , report its measured GI50.
Solution: > 100 µM (inactive)

* * *

# key: entry, value: GI50
# System: PC-3
# method notes: NCI tumour cell line growth inhibition, 48 h
Activity calls are given as the source filed them. Cut-off read from the data, not from the text of the source: active = GI50 up to about 1.1 µM and inactive = higher.

Solved cases below.
{"molecule": "O=C(CCc1ccccc1)n1cccc1CO", "GI50": "> 100 µM (inactive)"}
{"molecule": "N=C(CSSCC(=N)NCC12CC3CC(CC(C3)C1)C2)NCC12CC3CC(CC(C3)C1)C2", "GI50": "14.9 µM (inactive)"}
{"molecule": "O=C1CN(/N=C/c2ccc(-c3ccc(F)cc3)o2)C(=O)N1", "GI50": "> 100 µM (inactive)"}
{"molecule": "COC(=O)[C@]1(c2cc3ccccc3[nH]2)CC2CN(C(=O)OCc3ccccc3)C1CC2=O (stereo not given in full)", "GI50": "17.1 µM (inactive)"}

We now examine a further molecule.
Problem: Find the recorded GI50 belonging to N=C1OC(c2cccc(Cl)c2)C(NNS(=O)(=O)c2ccccc2)=C1O (stereo not given) and report it.
Solution: 21.2 µM (inactive)

* * *

# System: HCT-116
# method notes: NCI tumour cell line growth inhibition, 48 h
Activity calls are given as the source filed them. Rule as the data show it: active = GI50 up to about 1.1 µM and inactive = higher.
Examples of compounds with documented GI50 follow.

{"compound": "O=c1c2cc(O)c(O)cc2oc2cc(O)c(C3OC(CO)C(O)C(O)C3O)c(O)c12 (stereo not given)", "GI50": "> 100 µM (inactive)"}

Problem: Fill in the recorded GI50 for this compound, with HCT-116 as test system: O=C1C=CC(=O)C2C1Cc1ccccc1C2c1ccccc1 (stereo not given)
Solution: 37.6 µM (inactive)

* * *

# Tested on: MOLT-4
# method notes: NCI tumour cell line growth inhibition, 48 h
Active and inactive are the calls of the source. No stated cut-off is given here; in the data, active = GI50 up to about 1.1 µM and inactive = higher. Peptide text beside a SMILES is read from it. * marks the point of attachment. OSu = O=C1CCC(=O)N1O*
Reply using exactly one outcome from class 1 (active), class 0 (inactive)

Answered cases to consult:
{"compound": "COc1cc(OC)c(/C=C\\c2cc(/C=C/c3c(OC)cc(OC)cc3OC)c3ccccc3[n+]2C)c(OC)c1", "group label": "class 0"}
{"compound": "O=C(Nc1nc2ccc([N+](=O)[O-])cc2s1)C(=O)C(C(=O)c1ccncc1)C1OC(=O)c2ccccc21 (centres undefined)", "group label": "class 0"}
{"compound": "NCCCCC(NC(=O)C(N)Cc1ccc(O)cc1)C(=O)NC(Cc1ccc(O)cc1)C(=O)NC(CCCCN)C(=O)ON1C(=O)CCC1=O (centres undefined) (H-YKYK-OSu; configuration not given here)", "group label": "class 0"}
{"compound": "CN(C)c1ccc(/C=C(\\NC(=O)c2ccccc2)c2nn(C)c(=O)o2)cc1", "group label": "class 0"}
{"compound": "O=C(Nc1cccc(NC(=O)C(=O)C2CCC3=C(Sc4ccccc4N3)C2=O)n1)C(=O)C1CCC2=C(Sc3ccccc3N2)C1=O (centres undefined)", "group label": "class 0"}
{"compound": "Cc1cccc(C(C)(C)C)c1NC(=O)C(=O)C(c1cnc2ccccc2n1)[N+](=O)[O-] (centres undefined)", "group label": "class 0"}

Problem: Hey, what did the test say about "O=C1c2cccc3cc([N+](=O)[O-])cc(c23)C(=O)N1NC1=NCCN1" ?
Solution: class 0

Problem: Called result for CCC/C=C\C=C\C1(NS(=O)(=O)c2ccc(C)cc2)CCC(C(C)(C)C)CC1 (centres undefined)
Solution: class 0

Problem: How did this test come out for "Fc1nc(Sc2ncnc3nc[nH]c23)nc(-c2c3ccccc3c3sc4ccccc4n23)n1" ?
Solution: class 0

Problem: What call does the record list for "O=S(=O)(CCn1c(Sc2ccccc2)c(Sc2ccccc2)c2ccccc21)c1ccccc1" ?
Solution: class 0

Problem: How was "Cc1cnc2nc(-c3cccc4ccccc34)cc(O)c2c1" classified in this test?
Solution: class 1

Problem: Write down the call the test reported for this compound. Item: "CCN(C(=O)N[C@@H](Cc1ccccc1)C(=O)N[C@@H](CC(C)C)C(=O)NC)c1ccccc1"
Solution: class 0

Problem: Tell me the recorded outcome of this test for "Cc1ccc2c(c1C)-c1c(ccc(C)c1C)C(=O)C2=O" .
Solution: class 1

* * *

# Tested on: HL-60
# method notes: NCI tumour cell line growth inhibition, 48 h
The source made the active and inactive calls. Rule as the data show it: active = GI50 up to about 1.1 µM and inactive = higher.
observation type: GI50

Observe how each entry below is paired with its result.
{"compound": "CCOC(=O)N1C(=S)C(C(=O)OC)(C(=O)OC)N=C1C", "result": "> 100 µM (inactive)"}
{"compound": "COC(=O)[C@H]1[C@@H](C(C)C)O[C@@H](C(C)C)O[C@H]1C(F)(F)F", "result": "> 100 µM (inactive)"}
{"compound": "[N-]=[N+]=NC1OC(=O)C(Cl)=C1N=P(c1ccccc1)(c1ccccc1)c1ccccc1 (stereo not given)", "result": "3.77 µM (inactive)"}
{"compound": "C=C1C(=O)O[C@@H]2[C@H]1CCC(C)=C1C=CC(=O)[C@]12C", "result": "3.3 µM (inactive)"}

Problem: Request the reported GI50 associated with "CN(C)CCNc1nc2ccccc2c2c1CCCC2"
Solution: 14.8 µM (inactive)

* * *

# Test system: SK-MEL-5
# method notes: NCI tumour cell line growth inhibition, 48 h
Active and inactive are the calls of the source. No stated cut-off is given here; in the data, active = GI50 up to about 1.1 µM and inactive = higher.
Tick one outcome: active, inactive

// below: answered compounds
{"compound": "C/C(Nc1ccc(Cl)cc1)=C1/CCOC1=O", "group label": "inactive"}
{"compound": "COc1cc2c(cc1OC)C(C(=O)O)C(c1ccccc1)N(C)C2=O (configuration not stated)", "group label": "inactive"}
{"compound": "O=[N+]([O-])c1c(/C=N/c2ccccc2)oc(-c2ccc3c(c2)OCO3)c1-c1ccc2c(c1)OCO2", "group label": "inactive"}
{"compound": "CC(=O)OC1COC(N2c3ccccc3[C@@H]3CCc4c([nH]c5ccccc45)[C@@H]32)C(OC(C)=O)C1OC(C)=O.CC(=O)OC1COC(N2c3ccccc3[C@H]3CCc4c([nH]c5ccccc45)[C@H]32)C(OC(C)=O)C1OC(C)=O (some centres not stated)", "group label": "inactive"}
{"compound": "COC(=O)c1cc2c(nc1C)-c1ccccc1OS2(=O)=O", "group label": "inactive"}
{"compound": "O=[N+]([O-])c1ccc(NN=C2CN3CCN(C2)c2ccccc23)c([N+](=O)[O-])c1", "group label": "inactive"}
{"compound": "C[C@]12CC[C@H]3[C@@H](CC=C4C[C@@H](O)CC[C@@]43C)[C@@H]1C/C(=C\\c1ccncc1)[C@@H]2O", "group label": "inactive"}
{"compound": "CCOC(=O)N1C(=S)C(C(=O)OC)(C(=O)OC)N=C1C", "group label": "inactive"}

Problem: Give the logged outcome of this assay for the following compound: CCC/C=C\C=C\C1(NS(=O)(=O)c2ccc(C)cc2)CCC(C(C)(C)C)CC1 (configuration not stated)
Solution: inactive

Problem: What is the recorded call for this compound in the test? "CC(C)(C)c1cc(-c2c3nc(c(-c4cc(C(C)(C)C)cc(C(C)(C)C)c4)c4ccc([nH]4)c(-c4cc(C(C)(C)C)cc(C(C)(C)C)c4)c4nc(c(-c5cc(C(C)(C)C)cc(C(C)(C)C)c5)c5ccc2[nH]5)C=C4)C=C3)cc(C(C)(C)C)c1"
Solution: inactive

Problem: Just curious, what result did COc1ccc(-c2nc3cc(C(F)(F)F)ccc3n2CC2CCCN3CCCCC23)cc1 (configuration not stated) get here?
Solution: inactive

Problem: Any idea what this test logged for COC(=O)c1ccc(O)c2nc3c(C=O)c(O)cc(O)c3nc12 [LOMOFUNGIN] ?
Solution: active

Problem: How was "CN(/N=C/c1cccc2cccnc12)c1c([N+](=O)[O-])cc([N+](=O)[O-])cc1[N+](=O)[O-]" classified in this test?
Solution: inactive

Problem: Could you kindly confirm the outcome this assay logged for Cn1cnc2c(NCc3ccccc3)nc(NCCO)nc21 [OLOMOUCINE] ?
Solution: inactive

Problem: Could you please tell me the result logged for "CC1=N/C(=C\c2ccc(N)cc2)C(=O)N1Nc1nnc(NN2C(=O)/C(=C/c3ccc(N)cc3)N=C2C)c2ccccc12" in this assay?
Solution: inactive

Problem: Dear colleague, could you share the recorded outcome for CCOc1ccccc1N1C(=O)C(=O)C(c2nc3ccccc3o2)/C(=N\N)C1=O (configuration not stated) when you have a moment?
Solution: inactive

Problem: For this compound, state the assay outcome: "O=C1c2ccccc2C(=O)c2sc(Nc3ccc(Cl)c(Cl)c3)nc21"
Solution: inactive
